# Tested on: HSkMC
# experiment.notes: cytotoxicity call (relative viability < 0.9)
# settings: 10 µM
Hit rate of the full screen: of about 39,000 compounds, about 1,500 (3.8%) were called active. Only a selection was taken, and actives are over-represented in it overall.
Outcome (select one): active, inactive

Example entries begin here.
INSERT INTO assay_data (chemical_smiles, assigned_category) VALUES
  ('CCO[C@H]1OC(C(=O)N2CCN(Cc3ccccc3)CC2)=C[C@@H](C)[C@@H]1CCCOC(=O)NCCCCCC(=O)NO', 'inactive'),
  ('C[C@@H]1CN([C@H](C)CO)C(=O)c2cc(NC(=O)Nc3cccc4ccccc34)ccc2O[C@@H]1CN(C)Cc1ccc(Oc2ccccc2)cc1', 'inactive'),
  ('CN(C)c1ccc(C(=C2C=CC(=[N+](C)C)C=C2)c2ccc(N(C)C)cc2)cc1.[Cl-]', 'active'),
  ('C[C@H]1CCCCO[C@H](CN(C)CC2CC2)[C@@H](C)CN([C@@H](C)CO)C(=O)c2cc(NC(=O)c3ccccc3)ccc2O1', 'inactive'),
  ('COc1ccc(NC(=O)N(C)C[C@H]2OCCCC[C@@H](C)Oc3ccc(NC(=O)C4CCCCC4)cc3C(=O)N([C@@H](C)CO)C[C@H]2C)cc1', 'inactive'),
  ('CN1CCN(C(=O)[C@H]2C[C@H]3CN(c4ncc(F)cn4)C[C@@H]3N2C)CC1', 'inactive'),
  ('COc1cc(C(=O)OCCN2CCN(CCOC(=O)c3cc(OC)c(OC)c(OC)c3)CC2)cc(OC)c1OC', 'inactive'),
  ('Cc1cc(NC(=O)CCCC(=O)O)n(C)n1', 'inactive'),
  ('C[C@H]1CN([C@@H](C)CO)C(=O)CCCn2nncc2CO[C@H]1CN(C)C(=O)c1cc(-c2ccccc2)on1', 'inactive'),
  ('C[C@H]1CN([C@@H](C)CO)C(=O)Cc2cc(NC(=O)Nc3cccc4ccccc34)ccc2O[C@@H]1CN(C)C(=O)Nc1ccccc1', 'inactive');

Qu. I would be grateful if you could indicate the recorded call for C[C@@H]1CN([C@@H](C)CO)C(=O)c2cc(NC(=O)Cn3cnnn3)ccc2O[C@@H]1CN(C)Cc1ccc(C(F)(F)F)cc1 .
Ans. inactive

----------
# Tested on: HSkMC (human skeletal muscle cells)
# experiment.notes: cytotoxicity call (relative viability < 0.9)
# settings: 10 µM
Hit rate of the full screen: of about 39,000 compounds, about 1,500 (3.8%) were called active. This excerpt belongs to a sample that is enriched for actives.
Outcome (select one): 1 (active), 0 (inactive)

Example entries begin here.
INSERT INTO measurements (compound, system_under_test, assigned_category) VALUES
  ('CC[C@@]1(O)C[C@H](O[C@H]2C[C@H](N(C)C)[C@H](O[C@H]3C[C@H](O)[C@H](O[C@H]4CCC(=O)[C@H](C)O4)[C@H](C)O3)[C@H](C)O2)c2c(cc3c(c2O)C(=O)c2c(O)cccc2C3=O)[C@H]1C(=O)OC', 'HSkMC', 1),
  ('COc1ccc(NC(=O)Nc2ccc3c(c2)C(=O)N([C@@H](C)CO)C[C@@H](C)[C@H](CN(C)S(=O)(=O)c2ccc(Cl)cc2)OCCCC[C@@H](C)O3)cc1', 'HSkMC', 0),
  ('CC(C)(C)[S@](=O)N1Cc2cc(C(=O)NCC(F)(F)F)nc(-c3cccc(-c4cccc(F)c4)c3)c2[C@@H]1CCO', 'HSkMC', 0),
  ('NC(=O)CSc1ccccn1', 'HSkMC', 0),
  ('COc1ccc(NC(=O)N(C)C[C@@H]2OCCCC[C@H](C)Oc3ccc(NC(=O)Nc4ccc(F)cc4)cc3C(=O)N([C@H](C)CO)C[C@@H]2C)cc1', 'HSkMC', 0),
  ('C=CCNC(=O)[C@@H]1[C@H]2C(=O)O[C@H](c3ccccc3)[C@H](c3ccccc3)N2[C@H](c2ccccc2OCCO)[C@@]12C(=O)Nc1ccc(C#CC3=CCCCC3)cc12', 'HSkMC', 1);

Qu. I would be grateful if you could indicate the recorded call for COc1ccc(S(=O)(=O)N(C)C[C@@H]2Oc3ccc(NS(=O)(=O)c4ccc(F)cc4)cc3CC(=O)N([C@H](C)CO)C[C@H]2C)cc1 .
Ans. 0

Qu. I would be grateful if you could indicate the recorded call for CC(C)(N)c1ccccc1Br .
Ans. 0

Qu. I would be grateful if you could indicate the recorded call for CC(=O)O[C@H](C[C@H](O)C(C)(O)CCC=C(C)C)/C(C)=C/COC[C@@H](O)[C@@H](O)[C@@H](O)[C@@H](O)CO (some centres undefined) .
Ans. 0

Qu. I would be grateful if you could indicate the recorded call for Oc1c(Cl)cc(Cl)c(Cl)c1Cc1c(O)c(Cl)cc(Cl)c1Cl .
Ans. 1

Qu. I would be grateful if you could indicate the recorded call for COC(=O)[C@H]1c2cc3c(c(O)c2[C@@H](O[C@@H]2O[C@H](C)[C@H](OC)[C@](C)(OC)[C@@H]2OC)C[C@@]1(C)O)C(=O)c1c(O)cc2c(c1C3=O)O[C@H]1O[C@@]2(C)[C@@H](O)[C@H](N(C)C)[C@@H]1O .
Ans. 0

Qu. I would be grateful if you could indicate the recorded call for C[C@H]1CN(C(=O)N(C)C)CCN1C(=O)N(C)C .
Ans. 0

Qu. I would be grateful if you could indicate the recorded call for COc1cccc(CNC(=O)C[C@H]2C=C[C@H](NC(=O)C3CCOCC3)[C@H](CO)O2)c1 .
Ans. 0

Qu. I would be grateful if you could indicate the recorded call for C[C@@H]1CN([C@H](C)CO)C(=O)c2cc(C#CCN(C)C)cnc2O[C@@H]1CN(C)C(=O)c1ccc2c(c1)OCO2 .
Ans. 0
